- Tested on: celastrol signature
- assay.protocol: Connectivity Map query with the celastrol signature
- Assay type: cell-based, human
- Set-up: key: connectivity score, based on Kolmogorov-Smirnov statistic
- cond: enrichment of the celastrol signature (1.25 μM celastrol at 6 h, LNCaP) in the compound's Connectivity Map profiles; 6 hr treatment
assay.metric: celastrol score (connectivity score)
Give bare numbers.

Look over these answered cases.
CN[C@@H]1C[C@H]2O[C@@](C)([C@@H]1OC)n1c3ccccc3c3c4c(c5c6ccccc6n2c5c31)C(=O)NC4 [staurosporine] ... 0.092
CCOC(=O)C(C)(C)Oc1ccc(Cl)cc1 [clofibrate] ... 0
Nc1c(O)cccc1C(=O)CC(N)C(=O)O (racemic) [3-hydroxy-DL-kynurenine] ... 0
CO[C@@H]1[C@@H](OC(N)=O)[C@@H](O)[C@H](Oc2ccc3c(O)c(NC(=O)c4ccc(O)c(CC=C(C)C)c4)c(=O)oc3c2C)OC1(C)C [novobiocin] ... 0.167
CN(C)CCCN1c2ccccc2Sc2ccc(Cl)cc21 [chlorpromazine] ... 0.08

Please report celastrol score (connectivity score) for every entry that follows.
1. CC(=O)N(O)CCCCCNC(=O)CCC(=O)N(O)CCCCCNC(=O)CCC(=O)N(O)CCCCCN [deferoxamine]
2. Nc1nc2nc[nH]c2c(=S)[nH]1 [tioguanine]
3. CN(CCOc1ccc(CC2SC(=O)NC2=O)cc1)c1ccccn1 (stereo not drawn) [rosiglitazone]
4. Cc1ccc(-c2cc(C(F)(F)F)nn2-c2ccc(S(N)(=O)=O)cc2)cc1 [celecoxib]

1. −0.175
2. 0
3. 0.098
4. −0.01

====

- System: celastrol signature
- assay.protocol: Connectivity Map query with the celastrol signature
- Assay type: cell-based, human
- Parameters: key: connectivity score, based on Kolmogorov-Smirnov statistic
- cond: enrichment of the celastrol signature (1.25 μM celastrol at 6 h, LNCaP) in the compound's Connectivity Map profiles; 6 hr treatment
- From the text: Indeed, a major challenge in cell-based chemical biology and chemical genomics is the identification of compounds' targets (Gardner et al., 2003). We hypothesized that gene expression signatures could be used to identify compound action based on the similarity of such compound-induced signatures to signatures of existing drugs of known mechanism. […]
assay.metric: celastrol score (connectivity score)
Numbers only.

Look over these answered cases.
CC(/C=C/C(=O)NO)=C\[C@@H](C)C(=O)c1ccc(N(C)C)cc1 ... −0.02
CCCCNC(=O)NS(=O)(=O)c1ccc(C)cc1 [tolbutamide] ... 0.497

Please report celastrol score (connectivity score) for every entry that follows.
1. CC1=C(O)C(=O)C=C2C1=CC=C1[C@@]2(C)CC[C@@]2(C)[C@@H]3C[C@](C)(C(=O)O)CC[C@]3(C)CC[C@]12C
2. NC(=O)N1c2ccccc2C=Cc2ccccc21 [carbamazepine]
3. CCCc1c(OCCCCc2nnn[nH]2)ccc(C(C)=O)c1O
4. CC1=C(CC(=O)O)c2cc(F)ccc2/C1=C\c1ccc([S+](C)[O-])cc1 (stereo not drawn)
5. O=c1c(-c2ccc(O)cc2)coc2cc(O)cc(O)c12

[0.85, 0.339, 0.388, 0.207, 0.153]

====

- Tested on: celastrol signature
- assay.protocol: Connectivity Map query with the celastrol signature
- Type: cell-based, human
- cond: rank by celastrol score among 164 Connectivity Map compounds
Note to self: values exactly at 50 are Criterion met. So celastrol rank at or above 50 is Criterion met, below is Criterion not met.

N#CC(=C(N)Sc1ccccc1)C(C#N)=C(N)Sc1ccccc1 ... Criterion met
O=c1[nH]c2ccccc2c2ccccc12 ... Criterion not met
CCCCCCCCCCCCCCCC(=O)N[C@H](CN1CCOCC1)[C@H](O)c1ccccc1 (racemic) ... Criterion met
C=C1[C@@H](C)[C@H]2[C@H](Cc3ccccc3)NC(=O)[C@]23OC(=O)/C=C/[C@H](O)CCC[C@@H](C)C/C=C/[C@H]3[C@@H]1O ... Criterion met

Here's the next entry for you.
hey, is celastrol rank for this one >= 50? [Cl][Co][Cl] [cobalt chloride]
Criterion not met

====

- Test system: gedunin signature
- assay.protocol: Connectivity Map query with the gedunin signature
- Format: cell-based, human
- cond: rank by gedunin score among 164 Connectivity Map compounds
assay.metric: gedunin rank
Give bare numbers.

Please report gedunin rank for every entry that follows.
1. C[C@@H]1NC(=O)[C@H]2CCCN2C(=O)[C@H](CCCCCC(=O)[C@@H]2CO2)NC(=O)[C@@H](C)NC1=O
2. [Cl][Co][Cl] [cobalt chloride]
3. N#CC(=C(N)Sc1ccccc1)C(C#N)=C(N)Sc1ccccc1
4. O=c1[nH]c2ccccc2c2ccccc12
5. CC(/C=C/C(=O)NO)=C\[C@@H](C)C(=O)c1ccc(N(C)C)cc1
6. COC(=O)CNC(=O)C(=O)OC
7. COc1cc2ncnc(Nc3cccc(Cl)c3)c2cc1OC

1. 15
2. 72
3. 122
4. 164
5. 29
6. 119
7. 14

====

- Tested on: celastrol signature
- assay.protocol: Connectivity Map query with the celastrol signature
- Type: cell-based, human
- Parameters: key: connectivity score, based on Kolmogorov-Smirnov statistic
- cond: enrichment of the celastrol signature (1.25 μM celastrol at 6 h, LNCaP) in the compound's Connectivity Map profiles; 6 hr treatment
Task for the reader: assign each of the following molecules its reported celastrol score (connectivity score).
Answers are plain numbers.

Look over these answered cases.
O=C1NC(=O)c2cc(Nc3ccccc3)c(Nc3ccccc3)cc21 [4,5-dianilinophthalimide] ... 0
Cc1cccc(Nc2cc(Cl)nc(SCC(=O)O)n2)c1C [pirinixic acid] ... 0.226
CO[C@H]1/C=C\C=C(/C)C(=O)NC2=CC(=O)C(NCCN(C)C)=C(C[C@@H](C)C[C@H](OC)[C@H](O)[C@@H](C)/C=C(\C)[C@@H]1OC(N)=O)C2=O [17-DMAG, reference compound] ... 0.766
C/C(=C\c1ccc(C(=O)O)cc1)c1ccc2c(c1)C(C)(C)CCC2(C)C [TTNPB] ... 0
O=C(CCCCCCC(=O)Nc1ccccc1)NO [vorinostat] ... 0
CC(C)c1ccc2c(c1)c(SC(C)(C)C)c(CC(C)(C)C(=O)O)n2Cc1ccc(Cl)cc1 [MK-886] ... 0
Cc1ccc(N(CC2=NCCN2)c2cccc(O)c2)cc1 [phentolamine] ... 0
CCCCCCCCCCCCCCCC(=O)N[C@H](CN1CCOCC1)[C@H](O)c1ccccc1 (racemic) [DL-PPMP] ... 0
C=C1C[C@@H]2[C@H](CC[C@]3(C)C(=O)CC[C@@H]23)[C@@]2(C)C=CC(=O)C=C12 [exemestane] ... 0.427
CC(=O)O[C@H]1C(=O)[C@@]2(C)[C@H]([C@H](OC(=O)c3ccccc3)[C@]3(O)C[C@H](OC(=O)[C@H](O)[C@@H](NC(=O)c4ccccc4)c4ccccc4)C(C)=C1C3(C)C)[C@]1(OC(C)=O)CO[C@@H]1C[C@@H]2O [paclitaxel] ... 0.319

Supply celastrol score (connectivity score) value. Item: CC1=C(/C=C/C(C)=C/C=C/C(C)=C/C(=O)O)C(C)(C)CCC1 [tretinoin]
−0.084

====

- Test system: LNCaP cells
- assay.protocol: Viability screen, luminescent ATP quantitation assay
- cond: 1 nM R1881 plus compound ~20 μM, 3 days
Task for the reader: assign each of the following compounds its reported viability screen: viability (% [ATP] normalized to R1881-treated control).
Numbers only, in %.

CCCCCCCCCCCCCCCC[N+](C)(C)C.[Br-] [cetrimonium bromide, reference compound] ... 109.7
C[C@@H]1[C@H](O)[C@@H](C)/C=C/C=C/CC/C=C/C=C/C=C/C=C/C(O[C@H]2O[C@H](C)[C@@H](O)[C@H](N)[C@@H]2O)CC2O[C@](O)(CC(O)C(O)CCC(O)CC(O)CC(O)CC(=O)O[C@H]1C)CC(O)C2C(=O)O (stereo partly drawn) [nystatin, reference compound] ... 74.5

Please report viability screen: viability (% [ATP] normalized to R1881-treated control) for every entry that follows.
1. CC1(C)C(=O)C=C[C@]2(C)[C@H]3CC[C@@]4(C)[C@H](c5ccoc5)OC(=O)[C@H]5O[C@]54[C@]3(C)C(=O)C[C@@H]12
2. CC[C@@]1([C@@H]2O[C@@H]([C@H]3O[C@@](O)(CO)[C@H](C)C[C@@H]3C)C[C@@H]2C)CC[C@H]([C@]2(C)CC[C@]3(C[C@H](O)[C@@H](C)[C@@H]([C@@H](C)[C@@H](OC)[C@H](C)C(=O)O)O3)O2)O1 [monensin A, reference compound]
3. CC(=O)O[C@H]1CC[C@]2(C)C(C[C@@H](OC(C)=O)[C@]3(C)C4=CC(=O)O[C@H](c5ccoc5)[C@@]4(C)CCC23)C1(C)C (stereo partly drawn) [3-deoxo-3beta-acetoxydeoxydihydrogedunin]
4. CC(=O)O[C@@H]1C[C@H]2C(C)(C)C(=O)C=C[C@]2(C)[C@H]2CC[C@]3(C)C(=CC(=O)O[C@H]3c3ccoc3)[C@@]21C

1. 69.0
2. 113.6
3. 51.0
4. 63.3

Cited source for all entries: patent US20110263693A1
